# Test system: MDA-MB-435 melanoma
# PROTOCOL SUMMARY: NCI-60 one-dose screen, 48 h (100 = growth as untreated, 0 = no growth, -100 = all killed)
# TEST CONDITIONS: 10 µM unless noted
The panel holds about 83,000 compounds, 20% with a hit somewhere; the sample as a whole holds those more often.
Returns: string. Value is yes (1) if measured growth is below 20%, and no (0) if it is greater than or equal to it.

COMPOUND	ANSWER LABEL
C#CCOc1ccc(/C=N/Nc2nc(-c3cc4cc(Br)ccc4oc3=O)cs2)cc1OC	no (0)

Say whether its growth is strictly beneath 20%. Entry: O=c1[nH]c(=O)c2c(-c3cc4ccccc4oc3=O)ccnc2[nH]1
no (0)

What do you get for Cc1ccc2c(N)c(C(=O)Nc3ccc(-c4ccccc4)cc3)sc2n1 ?
no (0)

What do you get for COc1cc(C2CC(c3cc(OC)c(OC)c(OC)c3)=Nc3c(N)nc(N)nc3N2)ccc1Oc1nc(NCCO)nc(N2CCOCC2)n1 (centres undefined) ?
no (0)

What do you get for NS(=O)(=O)c1ccc(NNC(=O)CCC(=O)c2ccccc2)cc1 ?
no (0)

What do you get for Cc1ccccc1[C@H]1C(C(=O)c2ccc(Cl)cc2)C2(N[C@@H]1c1ccccc1)C(=O)Nc1ccccc12 (some centres undefined) ?
yes (1)

What do you get for O=c1cc(-c2ccccc2)oc2cc(OCCCC[P+](c3ccccc3)(c3ccccc3)c3ccccc3)cc(O)c12 ?
yes (1)

What do you get for S=C(Nc1ccccc1)Nc1ccc(OCc2nc3ccccc3[nH]2)cc1 ?
no (0)

What do you get for C#C[C@]1(O)CC[C@H]2[C@@H]3CC=C4c5sc(-c6ccc(O)c(O)c6)nc5CC[C@]4(C)[C@H]3CC[C@@]21C ?
yes (1)

====

# System: A549/ATCC NSCLC
# PROTOCOL SUMMARY: NCI-60 one-dose screen, 48 h
# TEST CONDITIONS: 10 µM unless noted
Compounds without any hit were thinned out: in the full panel of roughly 83,000, 20% have a hit. Activity calls are given as the source filed them. The calls were made as follows: active = growth percent below 10; inactive = the rest.
Just give me one of these, please: yes (1) for active, no (0) for inactive

For orientation, consider the following solved cases.
COMPOUND	ANSWER LABEL
COc1cc(C2CC(c3cc(OC)c(OC)c(OC)c3)=NN2c2ccccc2)ccc1OCc1ccc(C)cc1 (stereo not given)	no (0)
O=c1onc(-c2cc3ccccc3nc2Cl)n1-c1cccc2ccccc12	no (0)
OCC1(CCCc2ccccc2)CCCN(c2nccc3ccccc23)C1 (stereo not given)	no (0)
CN(C)c1nc(NCCNS(=O)(=O)c2ccc(C3=Nc4c(N)nc(N)nc4NC(c4ccc(F)cc4)C3)cc2)nc(Nc2ccc(F)cc2)n1 (stereo not given)	no (0)
Cn1nc(C(F)(F)F)cc1-c1cc(Cl)c(COc2ccc(Cl)cc2)c(-c2ccc(Cl)c(C(F)(F)F)c2)c1O	yes (1)
Cn1cc(-c2cc(N)n3nc(-c4c[nH]c5ccccc45)cc3n2)c2cc(Br)cnc21	yes (1)
Cn1cc(NC(=O)c2cc(NC(=O)c3ccc(C#Cc4ccccc4)cc3)cn2C)cc1C(=O)NCCCN1CCOCC1	no (0)
O=C1c2c(c3c4cc(F)ccc4oc3c3[nH]c4ccc(Br)cc4c23)C(=O)N1O	no (0)

Given CCCSc1nc(Nc2ccc(S(N)(=O)=O)cc2)c(C#N)c(-c2cc(OC)c(OC)c(OC)c2)n1 , state the outcome it received in this test.
no (0)

What do you get for O=C(Cn1c(/C=C/c2ccccc2)nc2ccccc2c1=O)Nc1ccccc1 ?
no (0)

What do you get for O=C(/C=C/Nc1ccc(Cl)cc1)c1ccc2c(c1)Nc1ccccc1S2 ?
no (0)

What do you get for O=C(COc1ccc(NC(=O)Nc2ccc(Cl)c(Cl)c2)cc1)N=Nc1c(O)[nH]c2ccc(Cl)cc12 ?
yes (1)

What do you get for O=C(Cn1nc(-c2ccccc2)ccc1=O)N/N=C/c1ccc(N2CCOCC2)cc1 ?
no (0)

Provenance of the data: PubChem BioAssay (NCI)
